system: Protein cereblon/Androgen receptor (Homo sapiens), P10275+Q96SW2 [UNDEFINED MUTATION]; test: PROTAC activity at AR-V7/CRBN in human 22Rv1 cells assessed as induction of AR-V7 degradation at 1 uM incubated for 24 hrs by Western blot analysis relative to control; format: cell-based; conditions: CWR22R
Sequence (P10275 whole entry, looked up, change not shown): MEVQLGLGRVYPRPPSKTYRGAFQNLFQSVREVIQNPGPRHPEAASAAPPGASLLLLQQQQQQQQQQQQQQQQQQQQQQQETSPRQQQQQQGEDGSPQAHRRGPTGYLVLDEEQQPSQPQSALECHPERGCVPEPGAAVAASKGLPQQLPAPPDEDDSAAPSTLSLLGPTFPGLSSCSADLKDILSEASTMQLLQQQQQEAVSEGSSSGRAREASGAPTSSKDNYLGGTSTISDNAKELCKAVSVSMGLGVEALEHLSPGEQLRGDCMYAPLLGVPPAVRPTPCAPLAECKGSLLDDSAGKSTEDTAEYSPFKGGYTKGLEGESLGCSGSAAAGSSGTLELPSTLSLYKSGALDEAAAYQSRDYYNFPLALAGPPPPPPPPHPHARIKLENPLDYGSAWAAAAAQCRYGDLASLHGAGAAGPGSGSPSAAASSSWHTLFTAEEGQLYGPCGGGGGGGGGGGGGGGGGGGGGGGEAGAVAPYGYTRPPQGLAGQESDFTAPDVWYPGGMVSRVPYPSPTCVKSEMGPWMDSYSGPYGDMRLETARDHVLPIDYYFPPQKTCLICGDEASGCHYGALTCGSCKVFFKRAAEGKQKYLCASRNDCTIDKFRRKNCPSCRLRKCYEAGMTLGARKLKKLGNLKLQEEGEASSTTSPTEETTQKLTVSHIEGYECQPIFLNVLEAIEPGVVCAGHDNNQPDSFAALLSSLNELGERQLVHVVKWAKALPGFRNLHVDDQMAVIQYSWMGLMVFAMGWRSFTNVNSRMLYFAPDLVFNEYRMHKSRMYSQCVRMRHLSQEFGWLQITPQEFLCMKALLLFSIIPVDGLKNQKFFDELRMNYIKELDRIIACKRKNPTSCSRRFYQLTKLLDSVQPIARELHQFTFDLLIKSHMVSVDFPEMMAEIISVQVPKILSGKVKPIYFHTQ
Sequence (Q96SW2 whole entry, looked up, change not shown): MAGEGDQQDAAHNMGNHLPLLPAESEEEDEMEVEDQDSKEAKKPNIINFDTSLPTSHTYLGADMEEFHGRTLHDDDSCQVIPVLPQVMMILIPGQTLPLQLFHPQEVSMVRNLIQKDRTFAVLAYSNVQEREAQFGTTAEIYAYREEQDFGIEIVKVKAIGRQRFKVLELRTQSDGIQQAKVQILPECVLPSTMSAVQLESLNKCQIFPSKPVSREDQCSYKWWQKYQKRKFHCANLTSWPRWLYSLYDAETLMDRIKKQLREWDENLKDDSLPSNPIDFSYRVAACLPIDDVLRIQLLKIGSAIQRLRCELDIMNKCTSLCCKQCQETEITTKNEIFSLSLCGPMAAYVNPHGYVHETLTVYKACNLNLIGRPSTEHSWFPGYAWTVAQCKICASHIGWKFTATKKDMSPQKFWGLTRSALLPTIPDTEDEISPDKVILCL
recorded_endpoint: Activity (%)

Sample records with Activity:
CC(C)(c1ccc(OCC(=O)NC2CCN(c3ccc4c(c3)C(=O)N(C3CCC(=O)NC3=O)C4=O)CC2)cc1)c1ccc(OCC(O)CCl)cc1 (stereo unspecified) ... 68.8
CC(C)(c1ccc(OCC(=O)NCCCNc2cccc3c2C(=O)N(C2CCC(=O)NC2=O)C3=O)cc1)c1ccc(OCC(O)CCl)cc1 (stereo unspecified) ... 80.1
CC(C)(c1ccc(OCCCCNc2cccc3c2C(=O)N(C2CCC(=O)NC2=O)C3=O)cc1)c1ccc(OCC(O)CCl)cc1 (stereo unspecified) ... 78.1
CC(C)(c1ccc(OCCCCCCNc2cccc3c2C(=O)N(C2CCC(=O)NC2=O)C3=O)cc1)c1ccc(OCC(O)CCl)cc1 (stereo unspecified) ... 79.5

[a] CC(C)(c1ccc(OCCCCCCNc2ccc3c(c2)C(=O)N(C2CCC(=O)NC2=O)C3=O)cc1)c1ccc(OCC(O)CCl)cc1 (stereo unspecified)
[b] CC(C)(c1ccc(OCC(=O)N2CCC(N3CCN(c4ccc5c(c4)C(=O)N(C4CCC(=O)NC4=O)C5=O)CC3)CC2)cc1)c1ccc(OCC(O)CCl)cc1 (stereo unspecified)
q: # min-compare on Activity between a and b To answer, give the label that identifies your chosen option.
a: b

---

tested on: Protein cereblon/Androgen receptor (Homo sapiens), P10275+Q96SW2 [UNDEFINED MUTATION]; test: PROTAC activity at AR-V7/CRBN in human 22Rv1 cells assessed as induction of AR-V7 degradation at 1 uM incubated for 24 hrs by Western blot analysis relative to control; format: cell-based; settings: CWR22R
Below: a set of entries, each annotated with reported Activity.

CC(C)(c1ccc(OC[C@H](O)CO)cc1)c1ccc(OC[C@H](O)CCl)cc1 ... < 10%
CC(C)(c1ccc(OCC(=O)NC2CN(c3cccc4c3C(=O)N(C3CCC(=O)NC3=O)C4=O)C2)cc1)c1ccc(OCC(O)CCl)cc1 (stereo not given) ... 67.7%

q: Read off the recorded Activity for CC(C)(c1ccc(OCC(=O)NCCOCCOCCOCCNc2cccc3c2C(=O)N(C2CCC(=O)NC2=O)C3=O)cc1)c1ccc(OCc2cccc(N3CCOCC3)n2)cc1 (stereo not given)
a: < 10%

q: Given CC(C)(c1ccc(OCc2cccc(N3CCOCC3)n2)cc1)c1ccc(OCC2CCN(c3cccc4c3C(=O)N(C3CCC(=O)NC3=O)C4=O)CC2)cc1 (stereo not given) , respond with its Activity.
a: < 10%

q: Give Activity for the following molecule: CC(C)(c1ccc(OCC(=O)NCCN2CCN(c3cccc4c3C(=O)N(C3CCC(=O)NC3=O)C4=O)CC2)cc1)c1ccc(OCc2cccc(N3CCOCC3)n2)cc1 (stereo not given)
a: < 10%

Attribution: ChEMBL document CHEMBL6153032
